Entry source: PubChem BioAssay AID1919002

System: 743489-274-T-PDC complex spheroid growth
measurement notes: Anticancer human tumor 743489-274-T-PDC patient-derived renal cell carcinoma cell line growth inhibition [AhR]
reported conditions: second compound 3.16 µM; first compound 0.03 µM; stronger effect = lower value
assay metric: viability, T/C (%)

CC(C)CC(NC(=O)C(Cc1ccccc1)NC(=O)c1cnccn1)B(O)O (stereo not drawn) + Cc1ccccc1N=Nc1ccc(NC(=O)c2ccnn2C)c(C)c1; 34.9
CC(C)CC(NC(=O)C(Cc1ccccc1)NC(=O)c1cnccn1)B(O)O (stereo not drawn) + Cc1cncc(-c2nc(NCCc3c[nH]c4ccccc34)c3ncn(C(C)C)c3n2)c1; 25.9
O=C(C=Cn1cnc(-c2cc(C(F)(F)F)cc(C(F)(F)F)c2)n1)NNc1cnccn1 + CC(CO)NC(=O)c1cc(-c2ccc(Cl)cc2)nn(-c2cnn(C)c2)c1=O; 101

====

The reader will find reported viability, T/C values listed item by item below.
Test system: 743489-274-T-PDC complex spheroid growth
measurement notes: Anticancer human tumor 743489-274-T-PDC cell line growth inhibition [AhR];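 also: spheroids exposed to agents for 7 days before readout; 100% = DMSO vehicle control wells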
reported conditions: second compound 10 µM; first compound 0.1 µM; stronger effect = lower value
assay metric: viability, T/C (%)

Cn1ncnc1C1c2n[nH]c(=O)c3cc(F)cc(c23)NC1c1ccc(F)cc1 (stereo unspecified) + Cc1cncc(-c2nc(NCCc3c[nH]c4ccccc34)c3ncn(C(C)C)c3n2)c1; 131
COc1cc(Nc2ncc3c(n2)-c2ccc(Cl)cc2C(c2c(F)cccc2OC)=NC3)ccc1C(=O)O + Cc1ccccc1N=Nc1ccc(NC(=O)c2ccnn2C)c(C)c1; 81.2
O=C(c1cc(Cc2n[nH]c(=O)c3ccccc23)ccc1F)N1CCN(C(=O)C2CC2)CC1 + Cc1cncc(-c2nc(NCCc3c[nH]c4ccccc34)c3ncn(C(C)C)c3n2)c1; 102
COc1cccc2c1C(=O)c1c(O)c3c(c(O)c1C2=O)CC(O)(C(=O)CO)CC3OC1CC(N)C(O)C(C)O1 (stereo unspecified) + Cc1ccccc1N=Nc1ccc(NC(=O)c2ccnn2C)c(C)c1; 82.2
CC[C@@]1(O)C(=O)OCc2c1cc1n(c2=O)Cc2cc3c(CN(C)C)c(O)ccc3nc2-1 + CC(CO)NC(=O)c1cc(-c2ccc(Cl)cc2)nn(-c2cnn(C)c2)c1=O; 81.4
COc1cc(Nc2ncc3c(n2)-c2ccc(Cl)cc2C(c2c(F)cccc2OC)=NC3)ccc1C(=O)O + CC(CO)NC(=O)c1cc(-c2ccc(Cl)cc2)nn(-c2cnn(C)c2)c1=O; 102

====

System: 743489-274-T-PDC complex spheroid growth
measurement notes: Anticancer human tumor 743489-274-T-PDC cell line growth inhibition [AhR];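 also: spheroids exposed to agents for 7 days before readout; 100% = DMSO vehicle control wells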
reported conditions: second compound 1 µM; first compound 0.00949 µM; stronger effect = lower value
assay metric: viability, T/C (%)

CCc1c2c(nc3ccc(O)cc13)-c1cc3c(c(=O)n1C2)COC(=O)[C@]3(O)CC + Cc1cncc(-c2nc(NCCc3c[nH]c4ccccc34)c3ncn(C(C)C)c3n2)c1; 110
Nc1ncn(C2CC(O)C(CO)S2)c(=O)n1 (stereo not drawn) + CC(CO)NC(=O)c1cc(-c2ccc(Cl)cc2)nn(-c2cnn(C)c2)c1=O; 91.7
CCN(c1cc(-c2ccc(CN3CCOCC3)cc2)cc(C(=O)NCc2c(C)cc(C)[nH]c2=O)c1C)C1CCOCC1 + Cc1ccccc1N=Nc1ccc(NC(=O)c2ccnn2C)c(C)c1; 88.6
